# assay.target: STAT6 (endogenous, HiBiT-tagged) in HeLa LgBiT clone 4.14 cells (Homo sapiens)
# Construct: These cells express endogenous STAT6; host or cells: HeLa LgBiT clone 4.14
# Sequence (P42226 whole entry): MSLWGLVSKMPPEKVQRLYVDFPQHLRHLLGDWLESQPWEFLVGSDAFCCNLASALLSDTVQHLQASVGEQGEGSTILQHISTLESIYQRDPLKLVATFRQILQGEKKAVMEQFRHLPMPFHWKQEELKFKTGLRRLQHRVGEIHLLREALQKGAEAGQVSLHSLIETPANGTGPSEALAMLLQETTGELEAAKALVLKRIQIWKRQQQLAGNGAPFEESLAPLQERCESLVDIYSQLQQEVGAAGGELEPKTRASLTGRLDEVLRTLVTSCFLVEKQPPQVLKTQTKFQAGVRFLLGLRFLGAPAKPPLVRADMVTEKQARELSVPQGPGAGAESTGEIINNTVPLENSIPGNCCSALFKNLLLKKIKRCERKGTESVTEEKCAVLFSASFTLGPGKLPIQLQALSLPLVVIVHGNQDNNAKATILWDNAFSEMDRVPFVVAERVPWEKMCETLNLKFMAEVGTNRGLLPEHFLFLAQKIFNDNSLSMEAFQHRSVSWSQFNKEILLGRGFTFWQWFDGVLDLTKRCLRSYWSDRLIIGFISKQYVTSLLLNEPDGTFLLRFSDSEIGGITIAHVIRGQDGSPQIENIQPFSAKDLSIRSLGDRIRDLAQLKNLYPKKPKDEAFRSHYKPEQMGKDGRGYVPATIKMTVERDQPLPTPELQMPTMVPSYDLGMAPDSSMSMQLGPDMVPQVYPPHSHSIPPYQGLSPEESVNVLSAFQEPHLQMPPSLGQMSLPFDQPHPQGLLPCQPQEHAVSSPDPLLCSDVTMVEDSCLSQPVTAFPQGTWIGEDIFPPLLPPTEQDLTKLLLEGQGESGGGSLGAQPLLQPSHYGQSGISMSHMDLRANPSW
# assay.text: STAT6 Degrader Assay (HiBiT based, HeLa LgBiT clone 4.14 cells, luminescence, DC50)
# Type: cell-based
# measurement.conditions: Emax provided for test compounds with <80% Emax (and 2c15), geometric mean, read-out: STAT6 degradation Emax
test.readout: Emax

Here's what some known entries look like.
- compound: "Cn1c(CN2CCC(c3ccc(C(=O)N4CCn5c(CN6CCC(c7ccc(NC8CCC(=O)NC8=O)cc7F)CC6)nnc5C4)cc3)CC2)cc2c(-c3ccc4[nH]ncc4c3)ccnc21 (centres unmarked) [Example 2q2]"
  Emax: "70 to 80%"
- compound: "Cn1c(CN2CCC(c3ccc(C(=O)N4CCC(CN5CCN(c6ncc(NC7CCC(=O)NC7=O)cc6F)CC5)CC4)cc3)CC2)cc2c(-c3ccc(N)nc3)ccnc21 (centres unmarked) [Example 2n5]"
  Emax: "60 to 70%"
- compound: "Cc1cc(C(=O)N2CCn3nc(CN4CCC(c5ccc(NC6CCC(=O)NC6=O)cc5F)CC4)cc3C2)cnc1C1=CCN(Cc2cc3c(-c4ccc(N)nn4)ccnc3n2C)CC1 (centres unmarked) [Example 2c48]"
  Emax: "< 20%"
- compound: "Cn1c(CN2CCC(c3ccc(C(=O)N4CCC(OCC#Cc5cccc(NC6CCC(=O)NC6=O)c5)CC4)cc3)CC2)cc2c(-c3ccc4[nH]ncc4c3)ccnc21 (centres unmarked) [Example 2t5]"
  Emax: "30 to 40%"

Lookup: Item under review: C[C@H]1CN(c2ccc(NC3CCC(=O)NC3=O)cc2F)CCN1CC1CCN(C(=O)c2ccc(C3CCN(Cc4cc5c(-c6ccc7[nH]ncc7c6)ccnc5n4C)CC3)cc2)CC1 (some centres unmarked) [Example 2f5] . Reported Emax?
Found: 50 to 60%
